- ASSAY_TARGET: THRβ (Homo sapiens)
- Construct: made in house; host or cells: E. coli BL21 (DE3)
- ASSAY_TEXT: Time-resolved FRET (THR-FRET) agonist activity assay, GST-tagged THRβ LBD with SRC2 polypeptide
- Format: biochemical
- TEST_CONDITIONS: ratio of THR-FRET EC50 values THRα/THRβ

STRUCTURE	Selectivity (THRα/THRβ)
CCNC(=O)c1ccccc1SCc1c(Cl)cc(-n2ncc(=O)[nH]c2=O)cc1Cl	†† (††: 10 ≥ THRα/β;)
NC(=O)c1ccccc1OCc1c(Br)cc(-n2ncc(=O)[nH]c2=O)cc1Br	†† (††: 10 ≥ THRα/β;)

====

- ASSAY_TARGET: THRβ (Homo sapiens, UniProt P10828)
- Construct: expressed in transfected cells; host or cells: HEK293T
- Sequence (P10828 217-461): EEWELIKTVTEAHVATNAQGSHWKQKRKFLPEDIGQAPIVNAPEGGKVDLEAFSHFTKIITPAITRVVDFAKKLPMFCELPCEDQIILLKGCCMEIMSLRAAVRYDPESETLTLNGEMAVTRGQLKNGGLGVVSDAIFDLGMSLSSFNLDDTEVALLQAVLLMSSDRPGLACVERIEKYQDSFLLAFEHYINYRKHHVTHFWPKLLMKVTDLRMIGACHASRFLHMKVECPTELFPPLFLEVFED
- ASSAY_TEXT: Reporter gene (GAL4-THRβ-LBD / Dual-Glo luciferase) agonist activity assay in HEK293T cells
- Assay type: cell-based
- TEST_CONDITIONS: ratio of reporter gene EC50 values THRα/THRβ

COMPOUND	Selectivity (THRα/THRβ)
NC(=O)c1cc(Cl)ccc1OCc1c(Cl)cc(-n2ncc(=O)[nH]c2=O)cc1Cl [Compound 32]	† (†: 5 ≥ THRα/β;)
NC(=O)c1sccc1OCc1c(Cl)cc(-n2ncc(=O)[nH]c2=O)cc1Cl [Compound 45]	† (†: 5 ≥ THRα/β;)
